protocol.summary: ATG_DR4_LXR_CIS: Attagene CIS-FACTORIAL HepG2 Assay for human Liver X Receptor (LXR), DR4 submotif (AID 2282929)
assay.context: HepG2 Attagene DR4 cis-reporter, mRNA transcription; actives raise or lower the signal
Activity calls are given as the source filed them. The calls were made as follows: active = hit-call score of the fitted dose curve at least 0.9, where 1 is the maximum; inactive = score below 0.9.
Your reply should match one of these outcome classes. active, inactive

input: Look up the recorded call for CC(C)(C)c1cc([N+](=O)[O-])cc(C(C)(C)C)c1O in this test.
output: inactive

input: Look up the recorded call for O=C1C=CC(=O)c2ccccc21 in this test.
output: inactive

input: Look up the recorded call for O=C(O)COc1cc(Cl)c(Cl)cc1Cl in this test.
output: inactive

input: Look up the recorded call for Cc1ccc2nc3sc(=O)sc3nc2c1 in this test.
output: active

input: Look up the recorded call for CC(C)(C1CCC(O)CC1)C1CCC(O)CC1 (stereo not given) in this test.
output: inactive
